system: P. aeruginosa (PAO1); assay: MIC, P. aeruginosa; assay type: cell-based; conditions: P. aeruginosa PAO1; 22 hours at 37° C., MTT
recordedMetric: MIC P. aeruginosa (PAO1)

INSERT INTO measurements (molecule, assayedsystem, readoutvalue) VALUES
  ('Nc1ccc(C#CC#Cc2ccc(C(=O)N[C@@H](Cc3ccc(O)cc3)C(=O)NO)cc2)cc1 [CPD-033]', 'P. aeruginosa (PAO1)', 'C (11-50 μg/mL)'),
  ('C[C@@H](O)[C@H](NC(=O)c1ccc(C#CC#Cc2cccc(N)c2)cc1)C(=O)NO [CPD-012]', 'P. aeruginosa (PAO1)', 'A (<1 μg/mL)'),
  ('CC(C)(C)OC(=O)CC[C@H](NC(=O)c1ccc(C#CC#Cc2ccc(N)cc2)cc1)C(=O)NO [CPD-017]', 'P. aeruginosa (PAO1)', 'E (>100 μg/mL)'),
  ('Nc1ccc(C#CC#Cc2ccc(C(=O)N[C@@H](CCC(=O)O)C(=O)NO)cc2)cc1 [CPD-018]', 'P. aeruginosa (PAO1)', 'C (11-50 μg/mL)'),
  ('Nc1ccc(C#CC#Cc2ccc(C(=O)N[C@@H](CC(=O)O)C(=O)NO)cc2)cc1 [CPD-019]', 'P. aeruginosa (PAO1)', 'E (>100 μg/mL)'),
  ('C[C@@H](O)[C@H](NC(=O)c1ccc(C#CC#Cc2ccc(N)nc2)cc1)C(=O)NO [CPD-035]', 'P. aeruginosa (PAO1)', 'A (<1 μg/mL)');
